Some binders, each annotated with its measured Kd.
- target.desc: Human CD33 ECD-HSA (human)
- Sequence (chain, as listed by the source): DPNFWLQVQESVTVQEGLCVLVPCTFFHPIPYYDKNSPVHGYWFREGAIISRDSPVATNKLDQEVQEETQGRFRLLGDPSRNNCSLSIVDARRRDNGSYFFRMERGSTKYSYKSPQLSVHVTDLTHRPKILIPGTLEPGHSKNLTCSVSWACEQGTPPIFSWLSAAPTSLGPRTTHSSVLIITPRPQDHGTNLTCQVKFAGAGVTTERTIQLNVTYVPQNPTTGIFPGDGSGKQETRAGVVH
- test: ProteOn SPR, mAb captured by anti-human Fc, 1:1 Langmuir fit
measured.metric: Kd (nM)

>  <binder>
C33B46 (antibody, IgG1, V domains shown, huIgG1 F405L; also called C33F51; C33H108/C33L74) VH: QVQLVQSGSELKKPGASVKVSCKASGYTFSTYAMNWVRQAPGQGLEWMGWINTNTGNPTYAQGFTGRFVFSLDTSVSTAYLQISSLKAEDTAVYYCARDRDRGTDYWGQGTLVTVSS VL: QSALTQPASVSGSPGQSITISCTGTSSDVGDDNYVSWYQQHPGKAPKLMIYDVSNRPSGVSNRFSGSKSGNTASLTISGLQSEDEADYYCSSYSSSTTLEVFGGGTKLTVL

>  <measured.metric>
Kd

>  <unit.abbrev>
nM

>  <reported>
1.38

$$$$
>  <binder>
C33B72 (antibody, IgG1, V domains shown, huIgG1 F405L; also called C33F77; C33H65/C33L47) VH: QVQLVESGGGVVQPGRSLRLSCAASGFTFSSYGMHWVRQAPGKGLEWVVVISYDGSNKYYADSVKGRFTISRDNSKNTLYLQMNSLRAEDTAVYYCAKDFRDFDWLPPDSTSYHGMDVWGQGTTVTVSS VL: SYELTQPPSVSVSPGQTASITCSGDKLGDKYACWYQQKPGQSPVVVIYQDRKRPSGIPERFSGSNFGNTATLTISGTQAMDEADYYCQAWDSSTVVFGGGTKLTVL

>  <measured.metric>
Kd

>  <unit.abbrev>
nM

>  <reported>
0.23

$$$$
>  <binder>
C33B96 (antibody, IgG1, V domains shown, huIgG1 F405L; also called C33F101; C33H99/C33L37) VH: EVQLVESGGGLVQPGGSLRLSCAASGFTFSSYWMTWVRPAPGKGLEWVANIKRDGGEKYYVDSVKGRFTISRDNAANSLYLQMNSLRVEDTAVYYCARPFYDHFDYWGQGTLVTVSS VL: SYVLTQPPSVAVAPGQTARITCGGSNIGKISVHWYQQKAGQAPVLVVHDDRARPSGIPERLSGSNSGTTATLTISRVEVGDEADYYCQVWNSSSVHPVFGGGTKLTVL

>  <measured.metric>
Kd

>  <unit.abbrev>
nM

>  <reported>
1.92

$$$$
